biological target: chicken gizzard smooth muscle myosin subfragment-1 chemically crosslinked to cardiac or skeletal actin (Gallus gallus, UniProt P10587)
Sequence (P02607 2-151): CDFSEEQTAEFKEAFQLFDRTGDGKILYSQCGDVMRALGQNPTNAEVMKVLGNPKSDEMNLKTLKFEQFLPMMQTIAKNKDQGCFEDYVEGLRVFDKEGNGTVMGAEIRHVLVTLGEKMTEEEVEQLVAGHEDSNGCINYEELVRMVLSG
Sequence (P10587 84-789): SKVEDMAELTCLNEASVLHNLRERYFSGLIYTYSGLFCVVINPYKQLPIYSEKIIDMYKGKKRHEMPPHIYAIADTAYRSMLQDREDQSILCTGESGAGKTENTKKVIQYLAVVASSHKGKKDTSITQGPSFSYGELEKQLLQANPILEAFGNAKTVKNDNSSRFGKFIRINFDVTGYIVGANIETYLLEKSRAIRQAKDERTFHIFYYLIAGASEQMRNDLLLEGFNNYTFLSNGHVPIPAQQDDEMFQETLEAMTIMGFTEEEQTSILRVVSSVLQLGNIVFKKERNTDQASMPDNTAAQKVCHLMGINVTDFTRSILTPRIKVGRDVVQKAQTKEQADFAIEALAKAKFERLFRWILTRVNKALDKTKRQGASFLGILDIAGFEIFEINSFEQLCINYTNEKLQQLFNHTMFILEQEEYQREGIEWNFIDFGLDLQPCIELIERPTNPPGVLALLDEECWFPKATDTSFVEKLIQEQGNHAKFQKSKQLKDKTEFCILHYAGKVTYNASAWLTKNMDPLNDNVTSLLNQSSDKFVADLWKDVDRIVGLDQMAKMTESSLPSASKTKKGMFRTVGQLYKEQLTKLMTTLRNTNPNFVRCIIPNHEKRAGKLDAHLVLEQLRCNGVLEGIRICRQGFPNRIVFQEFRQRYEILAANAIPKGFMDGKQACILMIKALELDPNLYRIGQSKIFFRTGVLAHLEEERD
# maps each entry to its pIC50
Keep it numeric: pIC50 is minus log10 of the concentration in mol/L.

Below, each entry is followed by its recorded pIC50 result.
N#Cc1ccccc1-c1ccc(C(=O)NCCCCCCN)c(NCCc2cccc(F)c2)n1 | 5.91
Cc1ccccc1CCNc1nc(-c2ccccc2)ccc1C(=O)NCc1cccnc1 | 6.49
CC(C)C[C@H](CNC(=O)c1ccc(-c2ccccc2C#N)nc1NCCc1cccc(F)c1)NC(=O)CO | 5.93

For `C=CCNC(=O)c1ccc(-c2ccccc2)nc1NCCc1cccc(C)c1` , what is its reported pIC50?
5.43

###

List of IC50 values.
molecular target: chicken gizzard smooth muscle myosin subfragment-1 chemically crosslinked to cardiac or skeletal actin (Gallus gallus); construct: chicken gizzard smooth muscle myosin subfragment-1; from tissue; host or cells: chicken gizzard; experiment: Smooth muscle myosin ATPase dose response assay (pyruvate kinase/horseradish peroxidase/pyruvate oxidase-coupled, amplex red fluorescence); format: biochemical; conditions: read-out: IC50 Arithmetic Mean
A number alone suffices; assume nM.

Below are worked cases with known answers.
N#Cc1ccccc1-c1ccc(C(=O)NCc2cccnc2NCCN)c(NCCc2cccc(F)c2)n1 | 13
O=C(NCc1cccnc1)c1ccc(-c2ccsc2CO)nc1NCCc1cccc(F)c1 | 1570
N#Cc1ccccc1-c1ccc(C(=O)NC[C@H]2CCCCN2C(=O)OCCCl)c(NCCc2cccc(F)c2)n1 | 2690
CC(C)(C)OC(=O)NCCN1CCC[C@H](NC(=O)c2ccc(-c3ccccc3C#N)nc2NCCc2cccc(F)c2)C1=O (stereo in doubt) | 15300
N#Cc1ccccc1-c1ccc(C(=O)NCc2ccc(CN)cn2)c(NCCc2cccc(F)c2)n1 | 515
NCCCN1C(=O)CC[C@@H]1CNC(=O)c1ccc(-c2ccccc2C(N)=O)nc1NCCc1cccc(F)c1 | 13200
N#Cc1ccccc1-c1ccc(C(=O)NCC2CCCN(CCN=[N+]=[N-])C2=O)c(NCCc2cccc(F)c2)n1 (stereo not drawn) | 412
Cn1cc(-c2nc(NCCc3cccc(F)c3)c(C(=O)NC[C@H]3CCCN3C(=O)[C@H](CO)NC(=O)OC(C)(C)C)cc2F)cn1 | 1200

Please report the recorded IC50 for `N#Cc1cc(F)ccc1-c1ccc(C(=O)NCc2cccnc2)c(NCCc2cccc(F)c2)n1` .
38

Next: `CN(CCNC(=O)c1ccc(-c2ccccc2C#N)nc1NCCc1cccc(F)c1)C(=O)CCCN`
1200

Repeat for the following compound: `N#Cc1ccc(-c2ccc(C(=O)NCc3cccnc3)c(NCCc3ccccn3)n2)cc1`
1930

Then what about the compound `Cn1cc(-c2nc(NCCc3cccc(F)c3)c(C(=O)NC[C@H]3CCN3C(=O)CNC(=O)OC(C)(C)C)cc2F)cn1` ?
436

Then what about the compound `COC(=O)CNC[C@H](N)CNC(=O)c1ccc(-c2ccccc2C#N)nc1NCCc1cccc(F)c1` ?
913

Thanks! And `N#Cc1ccccc1-c1ccc(C(=O)NCc2cccc(CNCCN)n2)c(NCCc2cccc(F)c2)n1` ?
19

###

target: chicken gizzard smooth muscle myosin subfragment-1 chemically crosslinked to cardiac or skeletal actin (Gallus gallus)
property-label: IC50 (nM)
Reply with just the number (in nM).

Example entries and their recorded answers appear below.
CC(C)(C)OC(=O)NCC(=O)N1CC[C@@H]1CNC(=O)c1ccc(-c2cn[nH]c2)nc1NCCc1cccc(F)c1 | 2990
COC(=O)c1cccc(CCNc2nc(-c3ccccc3)ccc2C(=O)NCc2cccnc2)c1 | 28100
O=C(NCc1cccnc1)c1ccc(-c2ccc(F)cc2)nc1NCCc1ccccn1 | 1050

For the molecule `O=C(NCc1ccccn1)c1ccc(-c2ccccc2)nc1NCCc1ccccn1` , what IC50 is on record?
463

Subsequent entry: `O=C(Nc1cccnc1)c1ccc(-c2ccccc2)nc1NCCc1ccccn1`
5370

And for `O=C(NCc1cccnc1)c1ccc(-c2ccccc2)nc1NCC1(O)CCCCC1` ?
7810

Input `O=C(NCc1cccnc1)c1ccc(-c2ccc(C(F)(F)F)cc2)nc1NCCc1ccccn1`
2290

And the next one, `Cn1cc(-c2ccc(C(=O)NC[C@H]3CCC(=O)N3)c(NCCc3cccc(F)c3)n2)cn1` ?
156

Same for NCC1CCCCN1C(=O)c1ccc(-c2ccccc2)nc1NCCc1ccccn1 (centres unmarked)
18200

Similarly, N#Cc1ccccc1-c1ccc(C(=O)NCC2CCCCCN2C(=O)CN)c(NCCc2cccc(F)c2)n1 (centres unmarked) ?
248

// query: `Cn1cc(-c2ccc(C(=O)NCc3cccnc3)c(NCCc3ccccn3)n2)cn1`
2530

Also `N#Cc1ccccc1-c1ccc(C(=O)NCc2ccccc2CN)c(NCCc2cccc(F)c2)n1` , if possible.
24

Field entry: `Cn1cc(-c2nc(NCCc3cccc(F)c3)c(C(=O)NC[C@H]3CCN3C(=O)CN)cc2F)cn1`
50

Quick one: `C[C@@H](CNC(=O)c1ccc(-c2ccccc2C#N)nc1NCCc1cccc(F)c1)NS(C)(=O)=O`
1210

Let us now turn to `N#Cc1ccc(-c2ccc(C(=O)NCc3cccnc3)c(NCCc3cccc(F)c3)n2)s1`
280

Next molecule: `N#Cc1ccccc1-c1ccc(C(=O)N[C@@H](CO)C(N)=O)c(NCCc2cccc(F)c2)n1`
1020

Continue with `C[N+]1(C)CCC[C@@H]1CNC(=O)c1ccc(-c2ccccc2C#N)nc1NCCc1cccc(F)c1`
2050

Same question for `O=C(NCc1cccnc1)c1ccc(-c2ccccc2)nc1NCCN1CCCC1=O` please.
10600

Thanks! And O=C1CCCCC(CNC(=O)c2ccc(-c3cn[nH]c3)nc2NCCc2cccc(F)c2)N1 (centres unmarked) ?
687

Then what about the molecule `O=C(NCc1cccnc1)c1ccc(-c2ccccc2)nc1NCCC1OCCO1` ?
7120
